Experiment: solvent given as SMILES
Conditions: in Cc1ccccc1
Mark each entry fulfilled if its emission maximum sits below 600 nm, and not fulfilled for all others.

Use these answered entries as a reference point.
{"smilesRepresentation": "COc1ccc(-c2sc3c(-c4ccc(OC)cc4)c4n(c3c2-c2ccc(OC)cc2)[B-](F)(F)[N+]2=Cc3c(-c5ccc(OC)cc5)c5sc(-c6ccc(OC)cc6)c(-c6ccc(OC)cc6)c5n3[B-](F)(F)[N+]2=C4)cc1", "className": "not fulfilled"}
{"smilesRepresentation": "CN(C)c1ccc(C2=[N+]3C(=Nc4c(-c5ccc(O)cc5)cc(-c5ccc(N(C)C)cc5)n4[B-]3(F)F)C(c3ccc(O)cc3)=C2)cc1", "className": "not fulfilled"}

Req: Record COc1cc2c(cc1/C=C(\C#N)c1nc3ccccc3s1)c1ccccc1n2C : is its emission maximum strictly below 600 nm?
Resp: fulfilled

Req: Record CCCCCCCCCCCCn1cccc1/C=C/c1ccc(OCCCC)c2c(/C=C/c3cccn3CCCCCCCCCCCC)ccc(OCCCC)c12 : is its emission maximum strictly below 600 nm?
Resp: fulfilled

---

Assay: solvent given as SMILES
Conditions: in ClCCl
Mark each entry Y if its emission maximum sits below 500 nm, and N for all others.

Use these answered entries as a reference point.
{"molecule": "N#Cc1cc(-n2c3ccccc3c3cccnc32)c(-n2c3ccccc3c3cccnc32)cc1C#N", "className": "Y"}
{"molecule": "CCn1c2ccccc2c2cc(-c3cc(-c4ccc5c(c4)c4ccccc4n5CC)nc(SC)n3)ccc21", "className": "Y"}
{"molecule": "[C-]#[N+]c1ccc(-c2ccc(N(C)C)cc2)cc1", "className": "Y"}
{"molecule": "CN(C)c1ccc(C2=Nc3sc4ccccc4[n+]3[B-](F)(F)O2)cc1", "className": "Y"}

Req: Record COc1ccc(C2=C3C=C(/C=C/C(=O)OC(C)(C)C)C=[N+]3[B-](F)(F)n3cccc32)cc1 : is its emission maximum strictly below 500 nm?
Resp: N

Req: Record CCCSc1ccc2n1[B-](F)(F)[N+]1=CC=CC1=C2c1ccccc1 : is its emission maximum strictly below 500 nm?
Resp: N

Req: Record O=P1(c2ccccc2)C(c2ccc(N(c3ccccc3)c3ccccc3)cc2)=Cc2cc3ccccc3cc21 (centres undefined) : is its emission maximum strictly below 500 nm?
Resp: N

Req: Record CCOC(=O)c1c(-c2cc3ccc(OC)cc3oc2=O)nn(-c2ccccc2)c1C(=O)OCC : is its emission maximum strictly below 500 nm?
Resp: Y

Req: Record O=C(O)c1ccc2ccc3cccc4ccc1c2c34 : is its emission maximum strictly below 500 nm?
Resp: Y

Req: Record Cc1cc(-c2ccc(N(c3ccccc3)c3ccccc3)cc2)c2nsnc2c1-c1ccc(C(C)(C)C)cc1 : is its emission maximum strictly below 500 nm?
Resp: N

Req: Record C[Si]1(C)c2ccc(-c3cccs3)cc2C=Cc2cc(-c3cccs3)ccc21 : is its emission maximum strictly below 500 nm?
Resp: Y

Req: Record O=C1C2=C(O[B-](F)(F)[n+]3c2ccc2ccccc23)c2cccc3c(N4CCOCC4)ccc1c23 : is its emission maximum strictly below 500 nm?
Resp: N

Req: Record Cc1ccc2c(CC(=O)NN)coc2c1 : is its emission maximum strictly below 500 nm?
Resp: Y

Req: Record Cc1ccc(C#Cc2ccc3nc4ccc(C#Cc5ccc(C)cc5)cn4c(=O)c3c2)cc1 : is its emission maximum strictly below 500 nm?
Resp: Y

Req: Record O=c1oc2ccccc2c2c1c(=O)oc1c3ccccc3cc(O)c12 : is its emission maximum strictly below 500 nm?
Resp: N

Req: Record CN(C)c1ccc(/C=C/c2cc(/C=C/c3ccc(N(C)C)cc3)nc(/C=C/c3ccccc3)n2)cc1 : is its emission maximum strictly below 500 nm?
Resp: N

---

Test: solvent given as SMILES
Settings: in ClC(Cl)Cl
measurementKind: emission maximum (nm)
Answers are plain numbers, in nm.

{"molecule": "CCCCCCCCOc1ccc2c3cccc4c(OCCCCCCCC)ccc(c5cccc1c52)c43", "reportedMeasurement": 471.01}
{"molecule": "CCCCCCCCN1C(=O)c2ccc3c4c(-c5ccc(-n6c7ccccc7c7ccccc76)cc5)cc5c6c(cc(-c7ccc(-n8c9ccccc9c9ccccc98)cc7)c(c7ccc(c2c37)C1=O)c64)C(=O)N(CCCCCCCC)C5=O", "reportedMeasurement": 651}
{"molecule": "COc1ccc2c3ccc(OC)cc3c3cc4c(C)cc(=O)oc4cc3c2c1", "reportedMeasurement": 475}

List emission maximum for every entry below, keeping the order given.
1. Cc1ccc2nc3c4c(c5ccccc5c3nc2c1)OC(=O)CC4c1ccc(C(F)(F)F)cc1 (configuration not stated)
2. CCCCCCC(CCCCCC)N1C(=O)c2cccc3c(-c4ccc([Si](C)(C)C)cc4)ccc(c23)C1=O

Resp:
430
425.4

List emission maximum for every entry below, keeping the order given.
1. N#Cc1c(C#N)c2cc(F)ccc2c2ccc(F)cc12
2. CCCCCCCCCCCCOc1cc2c3c(ccc4c5c(NC6CCCCC6)cc6c7c(ccc(c1c34)c75)C(=O)N(C1CCCCC1)C6=O)C(=O)N(C1CCCCC1)C2=O

Resp:
374
722

List emission maximum for every entry below, keeping the order given.
1. N#Cc1cc2ccc(C(F)(F)F)cc2c2c1ccc1ccccc12
2. COc1cc(N(c2ccccc2)c2ccccc2)ccc1C=C(C#N)C#N
3. O=S(=O)(c1ccc(-c2ccc(-c3nc4c5ccccc5c5ccccc5c4n3-c3ccccc3)cc2)cc1)c1ccc(-c2ccc(-c3nc4c5ccccc5c5ccccc5c4n3-c3ccccc3)cc2)cc1

Resp:
1. 408
2. 567
3. 450

---

Experiment: solvent given as SMILES
Settings: in CS(C)=O
Assign emission maximum to each entry below.
One number for each entry, in nm.

{"compound": "COc1ccc2c3c(cccc13)C(=O)N(C)C2=O", "emission maximum, nm": 452}
{"compound": "F[B-]1(F)n2c(-c3cccs3)cc(-c3cccs3)c2N=C2C(c3cccs3)=CC(c3cccs3)=[N+]21", "emission maximum, nm": 775}
{"compound": "Cc1ccc(-c2cc3ccccc3oc2=O)cc1", "emission maximum, nm": 409}
{"compound": "O=C1CCCC2=C1C(c1cccc(Cl)c1)c1c(c3ccccc3oc1=O)N2 (stereo unspecified)", "emission maximum, nm": 443}
{"compound": "N#Cc1cc2ccc(O)cc2oc1=N", "emission maximum, nm": 409}

List emission maximum for every entry below, keeping the order given.
1. CN(C)c1ccc(/C=C/c2cc(/C=C/c3ccc(N(C)C)cc3)nc(/C=C/c3ccccc3)n2)cc1
2. CCC1=C(C)C(=O)n2c1cc1c(C)c(CC(=O)OC)c(C)n1c2=O
3. CCN1C(=CC=Cc2n(CC)c3cc(Cl)c(Cl)cc3[n+]2CC)N(CC)c2cc(Cl)c(Cl)cc21
4. Brc1ccc(N/C=C/C=[NH+]c2ccc(Br)cc2)cc1
5. COc1cc2c(cc1/C=C(\C#N)c1nc3ccccc3s1)c1ccccc1n2C

Resp:
[601, 500, 536, 497, 518]

Req: Value lookup for emission maximum; key = [C-]#[N+]c1ccc(-c2ccc(N(C)C)cc2)cc1
Resp: 447

---

Assign emission maximum to each entry below.
Test: solvent given as SMILES
Conditions: in C1CCCCC1
Numbers only, in nm.

Sample records with emission maximum:
{"smilesRepresentation": "CC(C)(C)c1ccc2oc(-c3ccc(-c4nc5cc(C(C)(C)C)ccc5o4)s3)nc2c1", "reportedMeasurement": 426}
{"smilesRepresentation": "N#C/C(=C\\c1ccccc1)c1nc2ccccc2s1", "reportedMeasurement": 430}
{"smilesRepresentation": "Cc1cc(C)c(C2=C3C=c4c(c5ccc(C(C)(C)C)cc5c5cc(C(C)(C)C)ccc45)=[N+]3[B-](F)(F)n3c2cc2c4ccc(C(C)(C)C)cc4c4cc(C(C)(C)C)ccc4c23)c(C)c1", "reportedMeasurement": 707}

# ---- query molecule ----
Req: Value lookup for emission maximum; key = [C-]#[N+]c1ccc(-c2ccc(N(C)C)cc2)cc1
Resp: 360

---

Assay: solvent given as SMILES
Conditions: in C1CCCCC1
measurementKind: emission maximum (nm)
Answers are plain numbers, in nm.

Sample records with emission maximum:
{"smilesRepresentation": "C(#Cc1ccccc1)C1=Cc2ccc3ccccc3c2NB1c1ccccc1", "emission maximum, nm": 416}
{"smilesRepresentation": "COc1cc(/C=C/c2ccccc2)cc(OC)c1", "emission maximum, nm": 364}
{"smilesRepresentation": "c1csc(-c2cnc(-c3cccs3)c3nonc23)c1", "emission maximum, nm": 567}
{"smilesRepresentation": "CCc1c(C)c2n(c1C)[B-](F)(F)[N+]1=C(C=C3C=Cc4ccccc43)C=CC1=C2C", "emission maximum, nm": 596}
{"smilesRepresentation": "CC(C)[Si]1(C(C)C)c2cc(C=C(C#N)C#N)ccc2-c2ccc(N(C)C)cc21", "emission maximum, nm": 509}

List emission maximum for every entry below, keeping the order given.
1. CN(C)C(=O)c1ccc(-c2nc3ccc(N(C)C)cc3s2)cc1
2. c1cc2c3c(c1)OCCCCCCOc1cccc(c1-c1c4ccccc4c-3c3ccccc13)OCCCCCCO2
3. C/C(=C\c1ccc(C)cc1)c1nc2ccccc2s1
4. CCCCn1c2ccc(C#N)cc2c2cc(C#N)cc(-c3ccc(N(c4ccccc4)c4ccccc4)cc3)c21
5. CCC1=C(C)C2=Cc3cc(I)c(I)n3[B-](F)(F)[N+]2=C1C

Resp:
[415, 429, 390, 407, 550.5]
